tested target: wt Tt H-NOX
Format: binding
condition set: read-out: KD (CO)
reported metric: Kd (nM)
Answer with a number only, understood to be in nM.

Prompt line: Sample [C-]#[O+] [CO, Carbon monoxide] — what was its Kd?
Response line: 160

====

tested target: wt Cb H-NOX
Type: binding
condition set: read-out: KD (O2)
reported metric: pKd
Give only the number. pKd is defined as minus log10 of concentration in molar units.

Prompt line: Sample O=O — what was its pKd?
Response line: 4.28
